| compound | melting point |
| --- | --- |
| COc1nc(C)nc(OC)c1C=S | 136 °C |
| CCN1CCc2nc(N3CCN(Cc4ccccc4)CC3)ncc2C1=O | 128 to 130 °C |
| CC(C)c1nc(CN2C(=O)C3(COc4cc5c(cc43)OCO5)c3c(Cl)cccc32)no1 (stereo not given) | 165 to 167 °C |
| COC(=O)c1sc(C)c2[nH]c(C(F)(F)C(F)(F)F)nc12 | 156 to 157 °C |
| COc1ccc(Oc2c(N)cc(C(=O)O)cc2S(N)(=O)=O)cc1 | 260 to 261 °C |
| O=C(NC(=S)Nc1cccc(Oc2ccccc2)c1)c1cccnc1 | 144 to 146 °C |
| C[C@@H](n1ncnn1)[C@](O)(Cn1ccnc1)c1ccc(F)cc1F | 158 to 160 °C |
| CC(=O)N1CCN(c2cc3c(c(NCc4ccccc4)c2F)c(=O)c(C(=O)O)cn3C2CC2)CC1C (stereo not given) | 235 to 236 °C |
| Nc1ccc(-c2cc(OCCCCCC(=O)O)nc(-c3ccccc3)c2)cc1 | 131 to 133 °C |
| O=C(O)C(=NOc1ccccc1)c1ccccc1 | 105 °C |

----------
| molecule | melting point |
| --- | --- |
| Nc1cc(Cl)c(OCC(F)(F)F)cc1F | 40 to 41 °C |
| CC1CC2C3CCC4=CC(=O)C=CC4(C)C3=CCC2(C)C1C(=O)COS(=O)(=O)c1ccc(Br)cc1 (stereo not given) | 124 to 129 °C |
| C[Si](C)(C)Oc1nc(-c2ccccc2)nc2c1CC(S(=O)(=O)c1ccccc1)CC2 (stereo not given) | > 250 °C |
| CC(=O)Nc1ccc(-c2nc3n(c2-c2ccc(NC(C)=O)cc2)CCS3)cc1 | 285 to 290 °C |
| C=CCN1C(=O)COc2cc(F)c(N)cc21 | 171 to 172 °C |

----------
# melting point annotations
measured-quantity: melting point

| compound | experimental-result |
| --- | --- |
| CCc1ccc(Nc2nc3cc(NC(=O)c4ccc(OC)c(OC)c4)ccc3o2)cc1 | > 250 °C |
| Cc1c2cccccc-2c(-c2ccccc2)c1-c1ccc(S(C)(=O)=O)cc1 | 165 to 167 °C |
| COC(=O)CP(=O)(O)C(CCCc1ccccc1)NC(=O)OCc1ccccc1 (stereo not given) | 107 to 109 °C |
| O=C(O)c1cccc(C(=O)CCl)n1 | 184 to 189 °C |
| O=C(O)C(=Cc1ccc(OCc2ccccc2)cc1OCc1ccccc1)Cc1ccccc1 | 175 to 176 °C |

----------
| record-smiles | melting point |
| --- | --- |
| O=c1[nH]ncc2c1c(O)nc1cc(Cl)c(Cl)cc12 | > 350 °C |
| N#Cc1ccc2[nH]cc(Cc3cccnc3)c2c1 | 125 °C |
| Cc1ccc(C(=O)Nc2ccc(-n3nc(C(F)(F)F)cc3C(F)(F)F)cc2)c(Cl)n1 | 155 to 156 °C |
| Cc1cc(C)c2nc(C(=O)O)cc(-c3ccccc3Cl)c2c1 | 234 to 235 °C |
| CCCCCCCCCCCCCCOc1ccc(C(=O)O)cc1 | 95 to 99 °C |

----------
# melting point annotations
measured-quantity: melting point

| compound | experimental-result |
| --- | --- |
| CCC(=O)Nc1cc(-c2c(-c3ccc(Cl)cc3)nc3cccnn23)ccn1 | 204 to 205 °C |
| N#Cc1ccccc1N1CCN(C[C@@H](O)COc2cccc(-c3noc4ccsc34)c2)CC1 | 87 to 89 °C |
| O=C(O)c1ccc(OCCOc2ccccc2)cc1 | 198 to 199 °C |
| CCN(C(=O)n1oc(C)c(Cl)c1=O)c1ccc(Cl)cc1Cl | 101 to 102 °C |
| Cc1nc(S(=O)(=O)Cc2ccccc2)nc(C)c1Br | 138 to 139 °C |
| CCc1nn(-c2ccc(Cl)nn2)c(CC)c1[N+](=O)[O-] | 83 to 85 °C |
| CC(=O)OC1CSC(Oc2cncc(-c3cccs3)c2)C(OC(C)=O)C1OC(C)=O (stereo not given) | 166 °C |
| N#CC=Cc1ccc(CBr)cc1 | 105 to 107 °C |
| COC(=O)C1=C(C)NC(C)=C(C(=O)OCOC(=O)C(C)C)C1c1cccc(Cl)c1Cl (stereo not given) | 145 °C |
| Clc1ccc(-c2cn3c(n2)CCCC3)c(Cl)c1 | 134 to 136 °C |
